// data source = patent US7449473B2

Below are compounds with their Ki as measured on UniProtKB P29275.
Sequence (P29275 whole entry): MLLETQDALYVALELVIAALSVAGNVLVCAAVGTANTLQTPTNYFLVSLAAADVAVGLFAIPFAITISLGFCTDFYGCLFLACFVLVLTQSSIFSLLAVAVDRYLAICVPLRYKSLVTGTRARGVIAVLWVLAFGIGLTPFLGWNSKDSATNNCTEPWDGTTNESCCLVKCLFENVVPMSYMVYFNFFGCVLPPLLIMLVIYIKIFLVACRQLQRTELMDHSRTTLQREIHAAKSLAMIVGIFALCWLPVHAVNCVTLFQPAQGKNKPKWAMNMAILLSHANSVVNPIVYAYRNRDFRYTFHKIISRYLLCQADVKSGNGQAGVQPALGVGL
Recorded endpoint: Ki (nM)

Smiles entry | Ki / nM
CCCn1c(=O)c2c(cc(-c3ccncc3)n2O)n(CCC)c1=O | 12

A: CCCn1c(=O)c2[nH]c(-c3cnn(Cc4cccc(F)c4)c3)cc2n(CCC)c1=O
B: CCCn1c(=O)c2[nH]c(-c3cnn(Cc4ccccc4)c3)cc2n(CCC)c1=O
Looking at A and B , which one comes out lower in Ki terms? Output the label that corresponds to your choice.
A
